System: MS2 coat protein
Experiment: apparent Kd, MS2 coat protein; higher = weaker binding; RNA-MaP array
Conditions: designed as: OFF switch for flavin mononucleotide; no ligand
Endpoint label: apparent Kd (nM)
Note: unit nM is implicit; provide only the numeric part.

// solved cases for apparent Kd follow
- Sequence code: "GGAAGUGUCUAGGAUAUCCUUCGAUCUAUGGCAGGAGAAGGAGAUACAUGAGGAUCACCCAUGUAGGUACGGGC"
  Test system: "MS2 coat protein"
  Readout units: "nM"
  Endpoint value: 7.1
- Sequence code: "UAAAUUCGAGGAUAUACGAGCCUCUUGAGCUGCCACGAAGCACAUGAGGAUCACCCAUGUAGAAGGCGACGGAU"
  Test system: "MS2 coat protein"
  Readout units: "nM"
  Endpoint value: 12.2
- Sequence code: "AUGUUCGAACAUGAGGAUCACCCAUGUGAACCUCAUAAACGUAGAAGGCGACCGAGUUUAUGGGUCGAGGAUAUACCUCGAGAA"
  Test system: "MS2 coat protein"
  Readout units: "nM"
  Endpoint value: 334

// switching to the query sequence
input: Can you share its apparent Kd? I mean this sequence: GGUGACCCUGUUCCACAUGAGGAUCACCCAUGUUACCACUAUUAGGAUAUGCUUACAUGUACACUGCAGAAGGAAUAGGUAAGA
output: 103
